Exercise: for every item that follows, state its recorded IC50.
Target: MCL-1 (Homo sapiens)
Sequence (Q07820 whole entry): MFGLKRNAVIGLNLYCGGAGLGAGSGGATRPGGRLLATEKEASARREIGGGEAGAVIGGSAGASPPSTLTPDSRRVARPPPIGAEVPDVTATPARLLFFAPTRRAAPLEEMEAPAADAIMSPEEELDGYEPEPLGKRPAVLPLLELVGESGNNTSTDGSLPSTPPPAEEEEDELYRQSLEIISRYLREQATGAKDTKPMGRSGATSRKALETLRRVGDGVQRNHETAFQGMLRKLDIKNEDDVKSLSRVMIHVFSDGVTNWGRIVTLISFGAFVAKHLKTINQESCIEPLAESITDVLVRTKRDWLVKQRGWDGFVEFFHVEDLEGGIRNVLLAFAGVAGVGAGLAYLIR
Experiment: Protein-protein interaction assay MCL-1/Noxa BH3 peptide (MCL-1 assay), TR-FRET
Format: binding
Conditions: MBP-MCL-1 / Noxa BH3-derived peptide, median
Method: Protein-Protein Interaction Assay: MCL-1/Noxa BH3 Peptide (MCL-1 Assay) […] In the assay 11 different concentrations of each compound (0.1 nM, 0.33 nM, 1.1 nM, 3.8 nM, 13 nM, 44 nM, 0.15 μM, 0.51 μM, 1.7 μM, 5.9 μM and 20 μM) were typically measured as duplicates in the same microtiter plate. For that, 100-fold concentrated DMSO solutions were prepared by serial dilutions (1:3.4) of a 2 mM stock solution in a clear, 384-well microtiter plate (Greiner Bio-One, Frickenhausen, Germany). […]
One number for each entry, in nM.

Look over these answered cases.
So what's the measured IC50 for this one? COCc1nn(C)c2c1-c1cccc3c(CCCOc4cccc5ccccc45)c(C(=O)O)n(c13)CCCCCOC2 (single isomer, unassigned; enantiomer 1) [Example 178]
18.1

What do you get for Cc1c2c(nn1CC(F)(F)F)COCCCCn1c(C(=O)O)c(CCCOc3cccc4ccccc34)c3cccc-2c31 [Example 242] ?
258

What do you get for CCc1nn(C)c2c1-c1c(C)ccc3c(C(C)CCOc4cccc5ccccc45)c(C(=O)O)n(c13)CCCCOC2 (single isomer, unassigned) [Example 274] ?
1560

What do you get for Cc1nn(C)c2c1-c1cccc3c(CCCOc4cccc5c4CCCC5)c(C(=O)O)n(c13)CCCCOC2 (single isomer, unassigned; enantiomer 2) [Example 008] ?
126

What do you get for CN1CCCn2c(C(=O)O)c(CCCOc3cccc4ccccc34)c3cccc(c32)-c2c(COc3ccc(-n4ccccc4=O)cc3)nn(C)c2C1 (single isomer, unassigned; enantiomer 1) [Example 1-115] ?
47.9

What do you get for CCc1c2c(nn1CCN1CCOCC1)COCCCCn1c(C(=O)O)c(CCCOc3cccc4ccccc34)c3cccc-2c31 (single isomer, unassigned; enantiomer 1) [Example 202] ?
46.2

What do you get for CC(C)OCc1nn(C)c2c1-c1cccc3c(CCCOc4cccc5ccccc45)c(C(=O)O)n(c13)CCCN(C)C2 (racemic) [Example 1-70] ?
20

What do you get for COC1(c2ccc(OCc3nn(C)c4c3-c3cccc5c(CCCOc6cccc7ccccc67)c(C(=O)O)n(c35)CC=CCOC4)cc2)CCOCC1 (racemic) [Example 1-64] ?
98.8

What do you get for CCc1c2c(nn1C)COCCCCn1c(C(=O)O)c(CCCOc3cccc4ccccc34)c3cccc-2c31 (single isomer, unassigned; enantiomer 1) [Example 148] ?
0.919

Please turn your attention to the following entry.
So what's the measured IC50 for this one? Cn1ccnc1COCc1nn(C)c2c1-c1cccc3c(CCCOc4cccc5ccccc45)c(C(=O)O)n(c13)CCCCOC2 (racemic) [Example 231]
26.2

---

Test system: SUDHL10
Experiment: Induction of caspase-3/7 activity (Caspase-Glo 3/7), SUDHL10
Format: cell-based
Conditions: Homo sapiens, SU-DHL10, 3 h, caspase-3/7 induction, SUDHL10 cells, 3 h treatment; median
Exercise: for every item that follows, state its recorded EC50.

Look over these answered cases.
So what's the measured EC50 for this one? COCCn1nc2c(c1CN1CCOCC1)-c1cccc3c(CCCOc4cccc5ccccc45)c(C(=O)O)n(c13)CCCN(C)C2 (racemic) [Example 056]
> 33 µM

What do you get for CN1CCCn2c(C(=O)O)c(CCCOc3cccc4ccccc34)c3cccc(c32)-c2cnn(C)c2C1 (racemic) ?
> 33 µM

Please turn your attention to the following entry.
So what's the measured EC50 for this one? Cn1nc(CN2CCCCC2=O)c2c1COCCCCn1c(C(=O)O)c(CCCOc3cccc4ccccc34)c3cccc-2c31 (single isomer, unassigned; enantiomer 1) [Example 326]
> 33 µM
